# TEST_PROTOCOL: Oral bioavailability in BALB/c mouse at 20 mg/kg
# Assay type: ADME, organism-based
# CONDITION_NOTES: in vivo
MEASURED_ENDPOINT: bioavailability (%)
Give the number; % is assumed, so skip it.

INSERT INTO assay_data (item_smiles, measured_endpoint, reported_measurement) VALUES
  ('O=C(CCC1=CCCN(CCCCc2ccccc2)C1=O)NO', 'bioavailability', 1);

Kindly consider the entry below.
Input: Consider the compound O=C(CCC1=CCCN(Cc2ccc(Br)cc2F)C1=O)NO . State its measured bioavailability.
Output: 14.1

====

# TEST_PROTOCOL: Volume of distribution at steady state in BALB/c mouse at 5 mg/kg, iv
# Assay type: ADME, organism-based
# Design: dose 5 mg/kg, route intravenous
# CONDITION_NOTES: BALB/c, in vivo, read-out: Vdss
MEASURED_ENDPOINT: Vd (L/kg)
Numbers only; they are read as L/kg.

Input: Please supply the value of reported Vd for the item O=C(CCC1=CCCN(CCCCc2ccccc2)C1=O)NO
Output: 0.27
